As an illustration, consider measured IC50 for molecules on PI3K β (Homo sapiens (Human)).
Sequence (P42338 whole entry): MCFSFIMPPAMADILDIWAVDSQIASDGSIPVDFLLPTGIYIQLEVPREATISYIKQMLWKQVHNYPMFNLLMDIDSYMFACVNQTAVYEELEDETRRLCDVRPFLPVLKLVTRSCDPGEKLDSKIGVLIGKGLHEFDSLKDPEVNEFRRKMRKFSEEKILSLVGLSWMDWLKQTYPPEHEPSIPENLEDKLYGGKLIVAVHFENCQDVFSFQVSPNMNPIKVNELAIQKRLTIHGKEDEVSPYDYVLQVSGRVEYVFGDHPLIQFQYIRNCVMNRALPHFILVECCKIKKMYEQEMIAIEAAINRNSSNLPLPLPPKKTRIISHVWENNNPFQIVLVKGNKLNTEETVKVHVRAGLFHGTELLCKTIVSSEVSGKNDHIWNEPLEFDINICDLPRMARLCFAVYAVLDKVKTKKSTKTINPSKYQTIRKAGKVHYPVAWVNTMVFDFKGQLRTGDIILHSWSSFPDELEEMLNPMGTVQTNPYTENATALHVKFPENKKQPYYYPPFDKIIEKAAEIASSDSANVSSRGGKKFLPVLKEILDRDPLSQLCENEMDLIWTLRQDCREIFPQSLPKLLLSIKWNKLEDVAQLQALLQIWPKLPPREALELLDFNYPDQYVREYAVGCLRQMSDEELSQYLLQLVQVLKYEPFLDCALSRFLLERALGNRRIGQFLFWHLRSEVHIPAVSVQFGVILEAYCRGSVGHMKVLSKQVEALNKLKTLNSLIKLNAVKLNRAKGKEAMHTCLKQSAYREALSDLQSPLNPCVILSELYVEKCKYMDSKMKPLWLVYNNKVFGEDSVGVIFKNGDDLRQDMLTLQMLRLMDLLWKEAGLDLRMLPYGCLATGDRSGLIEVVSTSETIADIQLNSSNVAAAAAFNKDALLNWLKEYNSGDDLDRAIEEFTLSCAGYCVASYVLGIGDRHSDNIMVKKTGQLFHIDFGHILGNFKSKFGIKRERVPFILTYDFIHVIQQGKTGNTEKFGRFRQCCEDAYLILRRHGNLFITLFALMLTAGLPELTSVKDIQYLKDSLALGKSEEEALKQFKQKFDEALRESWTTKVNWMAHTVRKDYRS
Sequence (P27986 whole entry partner): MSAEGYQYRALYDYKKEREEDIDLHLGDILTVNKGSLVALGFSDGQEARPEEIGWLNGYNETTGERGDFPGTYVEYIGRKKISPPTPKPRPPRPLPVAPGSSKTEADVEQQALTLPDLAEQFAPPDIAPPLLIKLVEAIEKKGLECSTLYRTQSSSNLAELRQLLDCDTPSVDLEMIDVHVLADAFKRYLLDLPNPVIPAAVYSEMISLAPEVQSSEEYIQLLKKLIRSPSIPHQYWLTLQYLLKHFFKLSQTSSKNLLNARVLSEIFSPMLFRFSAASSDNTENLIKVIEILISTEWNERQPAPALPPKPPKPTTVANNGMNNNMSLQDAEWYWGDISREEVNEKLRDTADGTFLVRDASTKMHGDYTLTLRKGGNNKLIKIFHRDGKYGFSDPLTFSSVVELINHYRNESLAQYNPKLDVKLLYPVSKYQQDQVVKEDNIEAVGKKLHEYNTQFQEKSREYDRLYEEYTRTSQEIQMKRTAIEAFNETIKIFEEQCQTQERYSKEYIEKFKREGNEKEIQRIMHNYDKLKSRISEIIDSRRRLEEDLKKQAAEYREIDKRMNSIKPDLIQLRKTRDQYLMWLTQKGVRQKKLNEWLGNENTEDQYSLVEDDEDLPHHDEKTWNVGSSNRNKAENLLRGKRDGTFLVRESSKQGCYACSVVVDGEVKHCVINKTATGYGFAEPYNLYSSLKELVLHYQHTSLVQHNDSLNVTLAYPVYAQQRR
parameterMeasured: IC50

1) C[C@H](NC(=O)c1c(N)nn2cccnc12)c1cc2cccc(C#Cc3ccnn3C)c2c(=O)n1-c1ccccc1 [Compound 73]; 5 to 10 µM
2) C#Cc1cccc2nc([C@H](C)NC(=O)c3nccnc3N)n(-c3ccccc3)c(=O)c12 [Compound 47]; 0.001 to 0.5 µM
3) Cc1nnc(C#Cc2cccc3cc([C@H](C)NC(=O)c4c(N)nn5cccnc45)n(-c4ccccc4)c(=O)c23)s1 [Compound 86]; 1 to 5 µM
4) Cc1ncc(C#Cc2cccc3cc([C@H](C)NC(=O)c4c(N)nn5cccnc45)n(-c4ccccc4)c(=O)c23)n1C [Compound 38]; 5 to 10 µM
5) C[C@H](NC(=O)c1c(N)nn2cccnc12)c1cc2cccc(C#CC3CCNCC3)c2c(=O)n1-c1ccccc1 [Compound 72]; 5 to 10 µM
